- method_notes: in vivo
- measurement_conditions: mouse, po, 1500 mg/kg
quantity_kind: mortality (%)

• CC(S)C(=O)NCC(=O)O (stereo not shown) [compound (II), 2-mercaptopropionylglycine, reference compound] = 0

====

- method_notes: physchem
- measurement_conditions: dry
quantity_kind: remaining at 5.25 h (%)

- CC(SC(=O)c1cccs1)C(=O)NCC(=O)O (centres unmarked): 100
- CC(S)C(=O)NCC(=O)O (centres unmarked) [compound (II), 2-mercaptopropionylglycine, reference compound]: 99.5

====

- method_notes: in vivo
- measurement_conditions: rat, in vivo, po, 2500 mg/kg
quantity_kind: mortality at 168 h

• CC(S)C(=O)NCC(=O)O (stereo not shown) [compound (II), 2-mercaptopropionylglycine, reference compound] = 20%
